Biological target: Cannabinoid receptor 1 (Rattus norvegicus)
Sequence (P20272 whole entry): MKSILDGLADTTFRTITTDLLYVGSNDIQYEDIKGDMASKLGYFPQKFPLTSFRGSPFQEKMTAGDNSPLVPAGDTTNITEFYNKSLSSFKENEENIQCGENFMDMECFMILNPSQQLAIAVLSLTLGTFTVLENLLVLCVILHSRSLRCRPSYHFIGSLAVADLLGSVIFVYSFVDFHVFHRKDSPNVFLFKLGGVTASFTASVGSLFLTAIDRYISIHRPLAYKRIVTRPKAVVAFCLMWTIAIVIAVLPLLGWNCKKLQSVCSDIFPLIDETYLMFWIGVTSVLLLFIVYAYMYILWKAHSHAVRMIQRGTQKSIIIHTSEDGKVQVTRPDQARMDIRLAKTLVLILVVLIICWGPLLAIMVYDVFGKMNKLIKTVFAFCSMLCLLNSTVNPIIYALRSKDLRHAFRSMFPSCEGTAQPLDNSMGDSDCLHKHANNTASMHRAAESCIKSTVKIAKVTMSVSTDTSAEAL
Assay: Displacement of [3H]CP-55,940 from CB1 receptor in rat brain membranes in absence of FAAH inhibitor PMSF by radioligand binding assay
Assay type: cell membranes, Membrane
Recorded measurements of Ki, one per entry

{"entry smiles": "CCCCC/C=C\\[C@H](C)/C=C\\C/C=C\\C/C=C\\CCCC(=O)NC1CC1", "tested on": "Cannabinoid receptor 1 (Rattus norvegicus)", "Ki": "14.7 nM"}
{"entry smiles": "CCCCC/C=C\\[C@H](C)/C=C\\C/C=C\\C/C=C\\CCCC(=O)NCCCl", "tested on": "Cannabinoid receptor 1 (Rattus norvegicus)", "Ki": "45.3 nM"}
{"entry smiles": "C[C@H](/C=C\\C/C=C\\C/C=C\\CCCC(=O)NC1CC1)/C=C\\CCCCCN=[N+]=[N-]", "tested on": "Cannabinoid receptor 1 (Rattus norvegicus)", "Ki": "10.5 nM"}
